Target: Human CD137 ECD (human)
Sequence (chain, as listed by the source limits assumed): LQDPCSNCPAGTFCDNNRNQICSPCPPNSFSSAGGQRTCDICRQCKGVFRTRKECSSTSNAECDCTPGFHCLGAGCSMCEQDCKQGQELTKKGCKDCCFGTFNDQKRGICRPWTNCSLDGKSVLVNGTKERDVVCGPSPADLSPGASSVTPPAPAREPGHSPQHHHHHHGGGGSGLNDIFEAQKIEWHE
Test: SPR, vs parent H183/L072
Reported fold change of affinity by item:
Answer format: numeric, fold implied, no suffix.

binder: dBBDu183H S99W / dBBDu072L (antibody, name in Kabat numbering, V domains shown) VH: QVQLVESGGGLVQPGRSLRLSCAASGFTFSNAWMHWVRQAPGKGLEWVAQIKDKGNAYAAYYAPSVKGRFTISRDDSKNSIYLQMNSLKTEDTAVYYCHYVHYAWASTVLPAFGVDAWGQGTTVTVSS VL: DIVMTQSPLSLPVTPGEPASISCQASQELVHMNRNTYLHWYQQKPGQAPRLLIYKVSNRFPGVPDRFSGSGSGTDFTLKISRVEAEDVGVYYCAQGTSVPFTFGQGTKLEIK
value units: fold
fold change of affinity: 0
//
binder: dBBDu183H T100bD / dBBDu072L (antibody, name in Kabat numbering, V domains shown) VH: QVQLVESGGGLVQPGRSLRLSCAASGFTFSNAWMHWVRQAPGKGLEWVAQIKDKGNAYAAYYAPSVKGRFTISRDDSKNSIYLQMNSLKTEDTAVYYCHYVHYASASDVLPAFGVDAWGQGTTVTVSS VL: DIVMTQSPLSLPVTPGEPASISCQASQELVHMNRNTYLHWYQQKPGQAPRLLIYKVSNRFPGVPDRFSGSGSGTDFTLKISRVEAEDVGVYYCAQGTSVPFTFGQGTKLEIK
value units: fold
fold change of affinity: 0

Below: the item to evaluate.
// fold change of affinity lookup, binder = dBBDu183H Y97E / dBBDu072L (antibody, name in Kabat numbering, V domains shown) VH: QVQLVESGGGLVQPGRSLRLSCAASGFTFSNAWMHWVRQAPGKGLEWVAQIKDKGNAYAAYYAPSVKGRFTISRDDSKNSIYLQMNSLKTEDTAVYYCHYVHEASASTVLPAFGVDAWGQGTTVTVSS VL: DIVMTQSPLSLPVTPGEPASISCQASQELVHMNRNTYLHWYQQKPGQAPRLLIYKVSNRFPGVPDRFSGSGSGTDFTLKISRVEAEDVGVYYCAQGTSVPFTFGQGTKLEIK , result: 0
